The measurements presented in this section are drawn from patent US20220074941A1.

# Tested on: Hsp90 complexes in K562 cell extract
# procedure_details: Nano-LC-MS/MS of PU-beads pull-downs
# Type: binding
# recorded_conditions: protein identified in PU-beads pull-down of K562 cell extract, Prep 2; QSTAR-Elite QTof MS
endpoint_label: Number of Assigned Spectra, K562 Prep 2
Respond using a number only.

Consider the molecule ZG16B (protein, UniProt Q96DA0 17-172, looked up) Pancreatic adenocarcinoma …: GKMYGPGGGKYFSTTEDYDHEITGLRVSVGLLLVKSVQVKLGDSWDVKLGALGGNTQEVTLQPGEYITKVFVAFQAFLRGMVMYTSKDRYFYFGKLDGQISSAYPSQEGQVLVGIYGQYQLLGIKSIGFEWNYPLEEPTTEPPVNLTYSANSPVGR and give its recorded Number of Assigned Spectra, K562 Prep 2.
3
